target_desc: GABA-A receptor; anion channel
test_summary: Displacement of [3H]flumazenil from GABA-A receptor in rat cortical membranes
Assay type: cell membranes, Membrane
measured_property: pKi
Quick note: pKi values are minus log10 of concentrations in mol/L.

compound: CCc1ccc2ncc(C(=O)OC(CC)CC)c(O)c2c1
pKi: 5.59
//
compound: CCOC(=O)c1cnc2ccc(C(F)(F)F)cc2c1O
pKi: 6.91
//
compound: CCCOC(=O)c1cnc2cc(C)nn2c1O
pKi: 6.06
//
compound: CCCOC(=O)c1cnc2ccc(Cc3ccccc3)cc2c1O
pKi: 9.77
//
compound: CCc1ccc2ncc(C(=O)OC(C)C)c(O)c2c1
pKi: 6.67
//
compound: CCc1ccc2ncc(C(=O)OCCC(C)C)c(O)c2c1
pKi: 7.55
//
compound: CCc1ccc2ncc(C(=O)OCC(C)CC)c(O)c2c1 (centres undefined)
pKi: 7.55
//
compound: CCOC(=O)c1cnc2ccccc2c1O
pKi: 7.11

# pKi of CCOC(=O)c1cnc2ccc(Br)cc2c1O = 7.80

The reported pKi of the compound CCCNC(=O)c1cnc2ccc(Cc3ccccc3)cc2c1O was 10.32

Consider CCc1ccc2ncc(C(=O)OC3CCCC3)c(O)c2c1 . Its measured pKi is 7.72

// field: pKi; key: CCOC(=O)c1cnc2ccc(C(C)C)cc2c1O ; value = 7.82
